Data origin, for the record: ChEMBL document CHEMBL1240456

# Test system: Aspergillus fumigatus
# method summary: Antimicrobial activity against Aspergillus fumigatus after 48 hrs by microdilution assay
# Type: functional
quantity: MIC (µg/mL)

Query: State its MIC on Aspergillus fumigatus: Cc1cc(O)n2nc(Nc3ccccc3)c(C(=O)Nc3nc4ccccc4s3)c2n1
Reply: 100

P: O=C1CSC(CC(=O)Nc2nc3ccccc3s2)=N1
Q: CCOC(=O)c1sc(Nc2ccccc2)c(C(=O)Nc2nc3ccccc3s2)c1N
Query: Sort P and Q by MIC descending and give the first. Reply with the label of the item you choose.
Reply: P

----------
# Tested on: Aspergillus fumigatus
# method summary: Antimicrobial activity against Aspergillus fumigatus after 48 hrs by microdilution assay
# Assay type: functional
quantity: MIC (µg/mL)

Here are 5 compounds together with their reported answers.
Query: Report MIC for N#C/C(C(=O)Nc1nc2ccccc2s1)=C1\SCC(=O)N1c1ccccc1 please.
Reply: 50

Query: Report MIC for Nc1sc2c(c1C(=O)Nc1nc3ccccc3s1)CCCC2 please.
Reply: 50

Query: Report MIC for O=C(Nc1nc2ccccc2s1)c1c(Nc2ccccc2)nn2c(-c3cccs3)ccnc12 please.
Reply: 25

Query: Report MIC for O=C(Nc1nc2ccccc2s1)c1c(Nc2ccccc2)n[nH]c1/N=C\c1cn(-c2ccccc2)nc1-c1ccccc1 please.
Reply: 100

Query: Report MIC for Nc1c(C(=O)Nc2nc3ccccc3s2)sc(=S)n1-c1ccccc1 please.
Reply: 100

a: Cc1cc(C)c2c(n1)[nH]n1c(=N)c(C(=O)Nc3nc4ccccc4s3)nnc21
b: N#C/C(C(=O)Nc1nc2ccccc2s1)=C1/SC=C(c2ccccc2)N1c1ccccc1
Query: Sort a and b by MIC descending and give the first. Reply with the label of the item you choose.
Reply: a
